Molecular target: TYRO3/SKY (Homo sapiens, UniProt Q06418)
Sequence (Q06418 41-890): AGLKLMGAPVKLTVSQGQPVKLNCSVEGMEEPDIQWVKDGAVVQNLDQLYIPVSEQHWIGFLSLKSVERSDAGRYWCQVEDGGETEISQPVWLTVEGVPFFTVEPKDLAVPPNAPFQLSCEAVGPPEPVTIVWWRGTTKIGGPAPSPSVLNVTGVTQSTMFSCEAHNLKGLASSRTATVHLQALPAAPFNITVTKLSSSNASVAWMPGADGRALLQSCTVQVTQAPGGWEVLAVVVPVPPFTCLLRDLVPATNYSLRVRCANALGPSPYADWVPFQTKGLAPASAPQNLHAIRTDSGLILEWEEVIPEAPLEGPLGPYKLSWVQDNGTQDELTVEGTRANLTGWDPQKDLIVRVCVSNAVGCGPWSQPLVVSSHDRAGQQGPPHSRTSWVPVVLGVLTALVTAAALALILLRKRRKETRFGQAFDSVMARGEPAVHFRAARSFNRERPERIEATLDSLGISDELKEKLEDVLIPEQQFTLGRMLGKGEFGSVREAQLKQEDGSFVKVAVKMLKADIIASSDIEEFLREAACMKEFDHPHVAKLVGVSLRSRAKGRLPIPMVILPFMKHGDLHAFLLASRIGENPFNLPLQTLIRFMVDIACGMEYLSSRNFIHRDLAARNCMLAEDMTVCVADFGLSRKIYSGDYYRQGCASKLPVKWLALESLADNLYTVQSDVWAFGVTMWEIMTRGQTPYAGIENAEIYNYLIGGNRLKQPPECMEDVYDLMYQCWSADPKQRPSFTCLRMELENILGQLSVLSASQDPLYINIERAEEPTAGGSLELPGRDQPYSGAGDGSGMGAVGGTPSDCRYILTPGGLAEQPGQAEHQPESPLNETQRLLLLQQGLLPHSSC
Assay: HotSpot Kinase Assay, TYRO3/SKY
readout_kind: IC50

Value sought: IC50, system TYRO3/SKY (Homo sapiens, UniProt Q06418), item COc1cc2c(Oc3ccc(NC(=O)C4(C(=O)Nc5ccc(F)cc5)CC4)cc3)ccnc2cc1OC(=O)N1CCCC1 [Compound 1-14] . Result: > 1 µM

The compound COc1cc2nccc(Oc3ccc(NC(=O)C4(C(=O)Nc5ccc(F)cc5)CC4)cc3)c2cc1OC(=O)N1CCNC[C@H]1C [Compound 7-2] on TYRO3/SKY (Homo sapiens, UniProt Q06418): IC50 was < 0.1 µM

With TYRO3/SKY (Homo sapiens, UniProt Q06418) as the test system, COc1cc2c(Oc3ccc(NC(=O)C4(C(=O)Nc5ccc(F)cc5)CC4)cc3)ccnc2cc1OC(=O)N1CC[C@H](O)C1 [Compound 2-5] showed IC50 of > 1 µM

The compound COc1cc2nccc(Oc3ccc(NC(=O)C4(C(=O)Nc5ccc(F)cc5)CC4)cc3)c2cc1OC(=O)N1CCN(C)C[C@H]1C [Compound 7-3] , tested on TYRO3/SKY (Homo sapiens, UniProt Q06418), showed IC50 of < 0.1 µM

Sample COc1cc2c(Oc3ccc(NC(=O)C4(C(=O)Nc5ccc(F)cc5)CC4)cc3)ccnc2cc1OC(=O)N1CCN(C)C[C@@H]1C [Compound 1-12] , system: TYRO3/SKY (Homo sapiens, UniProt Q06418). Its IC50 is 0.1 to 1 µM

Value sought: IC50, system TYRO3/SKY (Homo sapiens, UniProt Q06418), item COc1cc2c(Oc3ccc(NC(=O)C4(C(=O)Nc5ccc(F)cc5)CC4)cc3)ccnc2cc1OC(=O)N1CCNCC1(C)C [Compound 6-5] . Result: 0.1 to 1 µM

FYI, the data here is from patent US11358949B2.
